Just for reference, the Kinase Knowledgebase extract (Sharma et al. 2016) is where these values come from.

Reported IC50 for target or system UniProtKB P48736, by entry.
Sequence (P48736 whole entry, looked up): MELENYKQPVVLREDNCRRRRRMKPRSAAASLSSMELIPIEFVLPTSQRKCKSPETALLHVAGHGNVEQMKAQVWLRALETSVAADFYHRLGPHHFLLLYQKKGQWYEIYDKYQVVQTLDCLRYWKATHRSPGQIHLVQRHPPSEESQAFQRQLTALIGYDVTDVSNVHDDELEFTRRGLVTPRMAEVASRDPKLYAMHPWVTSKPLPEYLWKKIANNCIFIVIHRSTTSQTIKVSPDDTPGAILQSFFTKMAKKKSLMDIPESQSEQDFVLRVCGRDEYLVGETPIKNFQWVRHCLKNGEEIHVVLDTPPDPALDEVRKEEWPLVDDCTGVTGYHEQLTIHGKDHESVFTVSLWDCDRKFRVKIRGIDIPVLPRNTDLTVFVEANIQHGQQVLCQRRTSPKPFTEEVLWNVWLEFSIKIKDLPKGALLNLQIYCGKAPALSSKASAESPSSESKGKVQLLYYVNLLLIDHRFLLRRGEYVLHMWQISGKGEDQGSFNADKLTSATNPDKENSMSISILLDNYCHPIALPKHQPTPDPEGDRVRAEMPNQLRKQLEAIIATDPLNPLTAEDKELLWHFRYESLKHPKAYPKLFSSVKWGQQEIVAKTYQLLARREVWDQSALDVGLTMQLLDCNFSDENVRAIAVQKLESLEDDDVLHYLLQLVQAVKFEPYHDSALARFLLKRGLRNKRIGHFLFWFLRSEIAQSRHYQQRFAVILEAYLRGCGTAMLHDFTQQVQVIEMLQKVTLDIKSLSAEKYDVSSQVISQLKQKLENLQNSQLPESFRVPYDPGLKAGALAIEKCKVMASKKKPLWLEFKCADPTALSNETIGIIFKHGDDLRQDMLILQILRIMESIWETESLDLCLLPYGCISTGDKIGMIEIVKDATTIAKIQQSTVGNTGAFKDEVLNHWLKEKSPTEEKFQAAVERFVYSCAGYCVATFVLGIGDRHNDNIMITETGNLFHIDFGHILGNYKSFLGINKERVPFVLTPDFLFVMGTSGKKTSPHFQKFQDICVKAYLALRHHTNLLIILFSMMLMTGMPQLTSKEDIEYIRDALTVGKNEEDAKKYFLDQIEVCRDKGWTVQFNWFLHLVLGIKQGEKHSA
Measured Quantity: IC50 (nM)

> print(dat)
                         structure.notation  measured.quantity  measurement.unit  operator.symbol  assay.result
1  CC(C)(O)CNc1ncc(-c2ccnc(Nc3ccnc(Cl)c3)n2)c(CC2CC2)n1               IC50                nM                =          2000
2  C[C@H](Nc1ncnc2nc[nH]c12)c1nc2ccc(F)cc2c(=O)n1-c1ccccc1               IC50                nM                =          1390
3  Cc1ccccc1Oc1cccc2c(=O)cc(N3CCOCC3)[nH]c12               IC50                nM                >        100000
4   Nc1ncc(-c2ccnc(Nc3ccncc3)n2)c(CC2CC2)n1               IC50                nM                =          3040
5  C[C@@H]1COCCN1c1cc(=O)n2c(n1)N(Cc1cncc(Cl)c1)[C@H](C(F)(F)F)CC2               IC50                nM                >         10000

====

Reported IC50 for target or system PIK3CB (Human), by entry.
Measured Quantity: IC50 (nM)

> print(dat)
                         structure.notation    study.system  measured.quantity  operator.symbol  assay.result
1  C[C@@H]1COCCN1c1cc(=O)n2c(n1)N(Cc1cncc(Cl)c1)[C@H](C(F)(F)F)CC2  PIK3CB (Human)               IC50                >         10000
2  CN(CCO)S(=O)(=O)c1cncc(-c2ccc3nc(NC(=O)NCCc4noc(C(C)(C)C)n4)sc3c2)c1  PIK3CB (Human)               IC50                =            62
3  Fc1ccc2[nH]ccc2c1-c1nc(N2CCOCC2)c2sc(CN3CCN(CC4CC4)CC3)cc2n1  PIK3CB (Human)               IC50                =          2650

====

# Study System: UniProt:O00329
# Sequence (O00329 whole entry, looked up): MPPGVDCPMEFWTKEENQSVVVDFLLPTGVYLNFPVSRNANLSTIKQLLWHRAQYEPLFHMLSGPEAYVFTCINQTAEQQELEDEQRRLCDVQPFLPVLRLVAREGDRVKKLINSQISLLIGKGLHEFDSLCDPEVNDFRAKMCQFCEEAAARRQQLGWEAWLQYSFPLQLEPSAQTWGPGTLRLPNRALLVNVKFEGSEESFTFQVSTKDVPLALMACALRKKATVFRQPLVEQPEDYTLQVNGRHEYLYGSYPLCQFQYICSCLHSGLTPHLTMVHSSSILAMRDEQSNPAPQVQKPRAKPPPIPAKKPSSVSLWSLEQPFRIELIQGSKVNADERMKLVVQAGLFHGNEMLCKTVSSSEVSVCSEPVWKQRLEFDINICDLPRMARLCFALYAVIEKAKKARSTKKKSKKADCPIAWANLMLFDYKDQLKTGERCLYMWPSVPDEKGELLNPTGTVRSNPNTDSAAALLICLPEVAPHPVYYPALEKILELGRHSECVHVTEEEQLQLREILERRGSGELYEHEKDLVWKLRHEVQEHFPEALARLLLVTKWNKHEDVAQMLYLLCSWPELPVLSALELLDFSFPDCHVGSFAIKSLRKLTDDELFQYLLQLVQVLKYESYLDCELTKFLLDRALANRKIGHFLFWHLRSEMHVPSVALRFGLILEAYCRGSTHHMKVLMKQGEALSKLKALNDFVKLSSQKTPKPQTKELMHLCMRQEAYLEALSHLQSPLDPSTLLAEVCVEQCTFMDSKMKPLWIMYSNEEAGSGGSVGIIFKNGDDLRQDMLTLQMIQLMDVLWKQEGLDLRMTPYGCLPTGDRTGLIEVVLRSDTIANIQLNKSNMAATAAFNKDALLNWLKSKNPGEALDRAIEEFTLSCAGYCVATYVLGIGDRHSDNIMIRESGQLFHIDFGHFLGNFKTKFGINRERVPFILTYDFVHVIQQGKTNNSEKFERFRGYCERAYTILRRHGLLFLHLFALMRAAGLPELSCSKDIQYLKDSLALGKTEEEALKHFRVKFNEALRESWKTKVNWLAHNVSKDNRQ
pIC50: −log10 of the molar value.
Documented pIC50 across a set of compounds
Measured Quantity: pIC50

> print(dat)
                         structure.notation    study.system  measured.quantity  assay.result
1  CC(C)(C)NS(=O)(=O)c1cncc(-c2cc(F)c3nc(N)nn3c2)c1  UniProt:O00329              pIC50          5.09
2  C[C@H](Nc1ncnc2nc[nH]c12)c1nc2ccc(F)cc2c(=O)n1-c1ccccc1  UniProt:O00329              pIC50          7.92
3  Cc1ccccc1Oc1cccc2c(=O)cc(N3CCOCC3)[nH]c12  UniProt:O00329              pIC50          6.20

====

Documented pIC50 across a set of compounds
# Study System: UniProtKB P42336
# Sequence (P42336 whole entry, looked up): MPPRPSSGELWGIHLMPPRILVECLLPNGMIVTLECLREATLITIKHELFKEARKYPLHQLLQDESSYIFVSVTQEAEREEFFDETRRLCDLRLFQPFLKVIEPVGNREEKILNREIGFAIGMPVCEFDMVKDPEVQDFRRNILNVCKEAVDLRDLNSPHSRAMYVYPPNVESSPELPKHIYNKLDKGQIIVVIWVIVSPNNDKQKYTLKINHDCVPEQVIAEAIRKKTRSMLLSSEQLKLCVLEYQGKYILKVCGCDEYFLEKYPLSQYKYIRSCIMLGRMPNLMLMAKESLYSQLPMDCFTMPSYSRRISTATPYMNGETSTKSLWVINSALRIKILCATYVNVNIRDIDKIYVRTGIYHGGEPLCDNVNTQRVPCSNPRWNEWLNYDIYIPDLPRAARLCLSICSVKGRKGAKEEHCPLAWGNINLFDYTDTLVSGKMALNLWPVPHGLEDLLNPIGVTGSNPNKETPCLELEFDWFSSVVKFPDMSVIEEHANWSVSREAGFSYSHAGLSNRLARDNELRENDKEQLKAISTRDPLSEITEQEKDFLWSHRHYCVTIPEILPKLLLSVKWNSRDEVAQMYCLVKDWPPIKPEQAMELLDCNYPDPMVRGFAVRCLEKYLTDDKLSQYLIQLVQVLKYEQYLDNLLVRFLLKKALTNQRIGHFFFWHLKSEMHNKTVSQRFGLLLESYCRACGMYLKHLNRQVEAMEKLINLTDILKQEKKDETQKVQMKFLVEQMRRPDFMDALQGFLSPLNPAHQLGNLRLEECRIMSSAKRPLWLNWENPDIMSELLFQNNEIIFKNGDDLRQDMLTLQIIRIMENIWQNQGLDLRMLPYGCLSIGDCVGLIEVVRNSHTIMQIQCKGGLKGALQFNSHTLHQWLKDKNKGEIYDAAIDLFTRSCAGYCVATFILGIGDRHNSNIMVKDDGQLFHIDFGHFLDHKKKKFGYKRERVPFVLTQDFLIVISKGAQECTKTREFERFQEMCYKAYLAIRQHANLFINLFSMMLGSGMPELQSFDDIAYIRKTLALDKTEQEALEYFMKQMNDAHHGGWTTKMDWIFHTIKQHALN
pIC50: −log10 of the molar value.
Measured Quantity: pIC50

> print(dat)
                         structure.notation  assay.result
1  C[C@H](Nc1ncnc2nc[nH]c12)c1nc2ccc(F)cc2c(=O)n1-c1ccccc1          5.26
2  Fc1ccc2[nH]ccc2c1-c1nc(N2CCOCC2)c2sc(CN3CCN(CC4CC4)CC3)cc2n1          6.04
3   Nc1ncc(-c2ccnc(Nc3ccncc3)n2)c(CC2CC2)n1          5.40
4  Cc1ccccc1Oc1cccc2c(=O)cc(N3CCOCC3)[nH]c12          4.21
